The reported numbers originate from paper PMC8726015.

assay.metric: pKi
Value format note: pKi is -log10 of concentration (mol/L); just state the number.

Recorded pKi for CC(C)(COP(=O)(O)O)[C@@H](O)C(=O)NCCCC(=O)O [compound 2, P-HoPan] with human phosphopantothenoylcysteine synthetase (hPPCS) (Homo sapiens, UniProt Q9HAB8), please?
4.87

* * *

Biological target: fruit fly phosphopantothenoylcysteine synthetase (dPPCS) (Drosophila melanogaster, UniProt Q7KN99)
Sequence (Q7KN99 1-313): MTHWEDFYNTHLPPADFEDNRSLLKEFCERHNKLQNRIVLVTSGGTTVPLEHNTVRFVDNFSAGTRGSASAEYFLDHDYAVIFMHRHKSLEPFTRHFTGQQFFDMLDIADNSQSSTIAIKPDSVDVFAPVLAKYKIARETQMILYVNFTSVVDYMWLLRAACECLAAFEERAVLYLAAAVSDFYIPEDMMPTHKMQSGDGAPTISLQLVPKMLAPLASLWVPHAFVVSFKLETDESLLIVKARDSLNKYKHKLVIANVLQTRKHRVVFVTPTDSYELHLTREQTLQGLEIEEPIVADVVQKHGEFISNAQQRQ
assay.metric: pKi
Hey, just a heads up that pKi is the negative log base 10 of the concentration in molar.

Field request: pKi | item: CC(C)(COP(=O)(O)O)[C@@H](O)C(=O)NCCCC(=O)O [compound 2, P-HoPan]
4.68
